protocol: Nonclinical pharmacokinetics in rats
Design: species or system rat
run-parameters: female, in vivo; rat IV infusion 3 hours, F, 167 ng/kg/min; read-out: CL
measurement-name: clearance (mL/min/kg)
Give a bare numeral; the unit mL/min/kg is implied.

Query: Let me know recorded clearance for H-TKFTLSLDVPTNIMNLLFNIAKAKNLRAQAAANAHLMAQI-NH2 [SEQ ID NO: 1] , thanks.
Result: 271

* * *

protocol: Nonclinical pharmacokinetics in rats
Design: species or system rat
run-parameters: male, in vivo; rat IV infusion 3 hours, M, 167 ng/kg/min; read-out: CL
Protocol: A sandwich immunoassay was developed using an affinity purified goat polyclonal antibody, specific to h-SCP that was pre-coated onto a microplate with integrated electrodes. h-SCP molecules present in the sample will bind to the capture polyclonal antibody coated on the plate. […] This conjugated antibody will bind to the h-SCP molecules captured on the microplate and the quantity of analyte was determined by electrochemiluminescence. […]
measurement-name: clearance
Quote the value and follow it with the unit of measurement.

Query: Let me know recorded clearance for H-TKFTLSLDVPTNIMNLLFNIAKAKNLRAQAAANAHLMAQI-NH2 [SEQ ID NO: 1] , thanks.
Result: 109 mL/min/kg

* * *

protocol: Nonclinical pharmacokinetics in dogs
Design: species or system dog
run-parameters: dog, in vivo; dogs, 3.3 to 33.3 ng/kg/min; read-out: plasma clearance
measurement-name: clearance

Query: Let me know recorded clearance for H-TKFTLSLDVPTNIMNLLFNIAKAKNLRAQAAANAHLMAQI-NH2 [SEQ ID NO: 1] , thanks.
Result: ~4 mL/min/kg

* * *

protocol: Human pharmacokinetics, heart failure subjects, 7.5-hour continuous ascending dose IV infusion
run-parameters: in vivo, infusion rate 3/9/18 ng/kg/min, mean, N = 2
Method: In heart failure subjects following a 7.5-hour continuous ascending dose IV infusion of h-SCP (SEQ ID NO:1) noncompartmental pharmacokinetic analyses were performed on plasma concentrations of h-SCP (SEQ ID NO:1). The pharmacokinetics of h-SCP (SEQ ID NO:1) in heart failure subjects appeared to be similar to that of healthy subjects. […] Within 30 minutes, plasma h-SCP (SEQ ID NO:1) was reduced to equal or less than 20% of the h-SCP (SEQ ID NO:1) level at the end of the infusion (FIG. 16B).
measurement-name: Cmax
Quote the value and follow it with the unit of measurement.

Query: Let me know recorded Cmax for H-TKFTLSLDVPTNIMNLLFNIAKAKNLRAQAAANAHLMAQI-NH2 [SEQ ID NO: 1] , thanks.
Result: 4.77 ng/mL

* * *

protocol: Nonclinical pharmacokinetics in dogs
Design: species or system dog
run-parameters: male, in vivo; dog IV infusion 3 hours, M, 16.7 ng/kg/min
measurement-name: AUC(0-inf) (ng·h/mL)
Give a bare numeral; the unit ng·h/mL is implied.

Query: Let me know recorded AUC(0-inf) for H-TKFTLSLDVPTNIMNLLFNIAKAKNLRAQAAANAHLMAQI-NH2 [SEQ ID NO: 1] , thanks.
Result: 12.8

* * *

protocol: Human pharmacokinetics, healthy subjects, 7.5-hour continuous ascending dose IV infusion
Format: in vivo
run-parameters: human, in vivo, healthy subjects, infusion rate 54/72/108 ng/kg/min, mean, N = 2
measurement-name: Cmax (ng/mL)
Give a bare numeral; the unit ng/mL is implied.

Query: Let me know recorded Cmax for H-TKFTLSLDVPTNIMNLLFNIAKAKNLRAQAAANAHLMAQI-NH2 [SEQ ID NO: 1] , thanks.
Result: 14.6
